- System name: F508delCFTR (Homo sapiens, UniProt P13569, DEL508-508)
- Construct: expressed in transfected cells; host or cells: CFBE41o- human lung-derived epithelial cells (CFBE4lo-F508delCFTR-HRP), doxycycline-inducible
- Sequence (P13569 with tags, fused parts or gaps DEL508-508): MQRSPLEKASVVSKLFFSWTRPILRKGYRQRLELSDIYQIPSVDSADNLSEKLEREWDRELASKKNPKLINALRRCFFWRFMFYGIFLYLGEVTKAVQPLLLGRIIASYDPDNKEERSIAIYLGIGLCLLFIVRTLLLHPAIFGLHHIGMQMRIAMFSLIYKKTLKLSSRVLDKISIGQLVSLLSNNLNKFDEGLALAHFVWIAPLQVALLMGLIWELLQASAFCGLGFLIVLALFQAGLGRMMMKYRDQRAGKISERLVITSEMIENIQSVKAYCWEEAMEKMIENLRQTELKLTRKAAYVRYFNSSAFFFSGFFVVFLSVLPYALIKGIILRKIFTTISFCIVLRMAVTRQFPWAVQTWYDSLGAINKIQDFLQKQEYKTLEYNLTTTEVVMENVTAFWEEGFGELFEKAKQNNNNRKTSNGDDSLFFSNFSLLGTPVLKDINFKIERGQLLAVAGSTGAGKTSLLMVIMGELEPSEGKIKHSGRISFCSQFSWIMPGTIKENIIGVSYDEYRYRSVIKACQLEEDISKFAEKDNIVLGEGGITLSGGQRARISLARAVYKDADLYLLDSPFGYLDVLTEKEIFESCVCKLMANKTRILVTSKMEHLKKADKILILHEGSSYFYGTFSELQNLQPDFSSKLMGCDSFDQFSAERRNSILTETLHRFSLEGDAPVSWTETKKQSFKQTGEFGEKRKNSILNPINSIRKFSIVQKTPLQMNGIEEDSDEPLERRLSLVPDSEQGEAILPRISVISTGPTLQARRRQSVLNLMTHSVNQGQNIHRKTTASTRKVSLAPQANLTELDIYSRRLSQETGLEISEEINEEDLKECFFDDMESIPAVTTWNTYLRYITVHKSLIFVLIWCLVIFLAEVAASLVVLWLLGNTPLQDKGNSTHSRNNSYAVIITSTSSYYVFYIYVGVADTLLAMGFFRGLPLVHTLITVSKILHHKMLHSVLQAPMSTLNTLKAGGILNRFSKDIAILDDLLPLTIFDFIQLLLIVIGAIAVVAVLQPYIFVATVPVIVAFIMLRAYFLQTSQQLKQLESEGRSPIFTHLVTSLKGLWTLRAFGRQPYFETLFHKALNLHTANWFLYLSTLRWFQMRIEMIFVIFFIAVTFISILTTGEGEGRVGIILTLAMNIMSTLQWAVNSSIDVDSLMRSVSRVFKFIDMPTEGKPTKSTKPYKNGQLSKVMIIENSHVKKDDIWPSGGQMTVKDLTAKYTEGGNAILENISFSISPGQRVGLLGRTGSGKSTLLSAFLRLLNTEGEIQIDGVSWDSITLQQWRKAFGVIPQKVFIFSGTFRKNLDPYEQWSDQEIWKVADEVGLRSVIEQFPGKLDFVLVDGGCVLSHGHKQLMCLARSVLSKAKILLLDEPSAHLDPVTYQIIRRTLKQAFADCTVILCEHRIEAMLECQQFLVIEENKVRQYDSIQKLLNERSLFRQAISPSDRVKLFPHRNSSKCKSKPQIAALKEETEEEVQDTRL
- Protocol: Cell Surface Expression-Horse Radish Peroxidase (CSE-HRP) Assay
- Assay type: cell-based
- Condition: CSE-HRP; with co-corrector (2 μM of 3-[(2R,4R)-4-({[1-(2,2-difluoro-1,3-benzodioxol-5-yl)cyclopropyl]carbonyl}amino)-7-methoxy-3,4-dihydro-2H-chromen-2-yl]benzoic acid); read-out: EC50 (with co-corrector)

Compound: COc1cc(C(F)(F)F)ccc1CN[C@H]1[C@H](C(C)(C)OC)[C@@H](C(=O)O)N(C(=O)C2CCCCC2)[C@H]1c1ccccc1 [II-150]
EC50: < 1000 nM
--
Compound: COc1cc(Cl)ccc1CN[C@H]1[C@H](C(C)(C)C)[C@@H](C(=O)O)N(C(=O)C2CCCCC2)[C@H]1c1cccnc1C [II-96]
EC50: 1000 to 10000 nM
--
Compound: CC(C)c1ccccc1CN[C@H]1[C@H](C(C)(C)C)[C@@H](C(=O)O)N(C(=O)C2CCCCC2)[C@H]1c1ccccc1 [II-166]
EC50: < 1000 nM
--
Compound: COc1ncc(C2CCC2)cc1CN[C@H]1[C@H](C(C)(C)C)[C@@H](C(=O)O)N(C(=O)[C@@H]2CCCCO2)[C@H]1c1ccccc1C1CC1 [Example I-296]
EC50: 1000 to 10000 nM
--
Compound: COc1ccc(C2(C)CCC2)cc1CN[C@H]1[C@H](C(C)(C)C)[C@@H](C(=O)O)N(C(=O)[C@@H]2CCCO2)[C@H]1c1ccccc1Br [Example I-295]
EC50: < 1000 nM
--
Compound: COc1ccc(C(F)(F)F)cc1CN[C@H]1[C@H](C(C)(C)C)[C@@H](C(=O)O)N(C(=O)OC(C)C)[C@H]1c1cccc(Cl)c1 [Example I-252]
EC50: 1000 to 10000 nM
--
Compound: COc1ccc(C(C)(C)C)cc1CN[C@H]1[C@H](C(C)(C)C)[C@@H](C(=O)O)N(C(=O)C(C)Oc2cccc(F)c2)[C@H]1c1ccccc1 (stereo partly drawn) [II-305]
EC50: < 1000 nM
--
Compound: COc1ccc(C(F)(F)F)cc1CN[C@H]1[C@H](C(C)(C)C)[C@@H](C(=O)O)N(C(=O)C2Cc3ccccc3O2)[C@H]1c1ccccc1 (single isomer, unassigned) [II-266]
EC50: < 1000 nM
--
Compound: COc1cc(C(F)(F)F)ccc1CN[C@H]1[C@H](C(C)(C)C)[C@@H](C(=O)O)N(C(=O)OC(C)C)[C@H]1c1cccnc1N1CCC1 [Example I-275]
EC50: 1000 to 10000 nM
--
Compound: COc1ccc(-c2ccc(F)cc2F)cc1CN[C@H]1[C@H](C(C)(C)C)[C@@H](C(=O)O)N(C(=O)C2CCCCC2)[C@H]1c1ccccc1 [II-283]
EC50: < 1000 nM
--
Compound: COc1cccc(-c2ccc(OC)c(CN[C@H]3[C@H](C(C)(C)C)[C@@H](C(=O)O)N(C(=O)C4CCCCC4)[C@H]3c3ccccc3)c2)c1 [II-277]
EC50: < 1000 nM
--
Compound: COc1cc(C(F)(F)F)ccc1CN[C@@H]1[C@@H](C(C)(C)C)[C@H](C(=O)O)N(C(=O)C(C)c2ccccc2)[C@@H]1c1ccccc1 (single isomer, unassigned) [II-80]
EC50: 1000 to 10000 nM
